pIC50: −log10 of the molar value.
Target or system D3 (Homo sapiens, UniProt P35462); recorded quantity pIC50.
Measured endpoint: pIC50

C[C@@H](O)c1nn(CCCN2CCN(c3cccc(Cl)c3)CC2)c(=O)n1CCOc1ccccc1 [(R)-OH, (R)-hydroxynefazodone] : 5.46
C[C@H](O)c1nn(CCCN2CCN(c3cccc(Cl)c3)CC2)c(=O)n1CCOc1ccccc1 [(S)-OH] : 5.72
CC(O)c1nn(CCCN2CCN(c3cccc(Cl)c3)CC2)c(=O)n1CCOc1ccccc1 (racemic) [(RS)-OH, reference compound] : 5.59

* * *

target: norepinephrine uptake by rat hypothalamus synaptosomes (Rattus norvegicus); construct: tissue Cerep; assay: Norepinephrine uptake functional assay; conditions: [3H]-norepinephrine, read-out: Monoamine Neuronal Transport NE uptake (IC50)
Sequence (Q63380 1-617): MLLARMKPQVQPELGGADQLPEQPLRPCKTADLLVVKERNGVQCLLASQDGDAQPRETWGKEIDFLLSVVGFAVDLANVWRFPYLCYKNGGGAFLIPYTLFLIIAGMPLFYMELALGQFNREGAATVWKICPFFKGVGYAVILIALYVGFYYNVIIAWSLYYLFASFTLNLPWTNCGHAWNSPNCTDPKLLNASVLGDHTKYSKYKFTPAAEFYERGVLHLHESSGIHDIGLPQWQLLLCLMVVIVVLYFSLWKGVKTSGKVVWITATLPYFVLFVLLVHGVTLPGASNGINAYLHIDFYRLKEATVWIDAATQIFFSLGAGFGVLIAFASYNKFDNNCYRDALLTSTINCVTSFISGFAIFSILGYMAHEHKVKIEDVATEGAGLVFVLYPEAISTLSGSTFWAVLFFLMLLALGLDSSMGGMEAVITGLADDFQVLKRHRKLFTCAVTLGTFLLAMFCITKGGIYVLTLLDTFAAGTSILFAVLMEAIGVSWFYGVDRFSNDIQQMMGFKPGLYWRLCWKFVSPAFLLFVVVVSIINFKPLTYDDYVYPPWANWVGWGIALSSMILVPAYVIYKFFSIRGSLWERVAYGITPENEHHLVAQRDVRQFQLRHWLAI
Measured endpoint: IC50 (nM)

C[C@@H](O)c1nn(CCCN2CCN(c3cccc(Cl)c3)CC2)c(=O)n1CCOc1ccccc1 [(R)-OH, (R)-hydroxynefazodone] : 1200

a: CC(O)c1nn(CCCN2CCN(c3cccc(Cl)c3)CC2)c(=O)n1CCOc1ccccc1 (racemic) [(RS)-OH, reference compound]
b: C[C@H](O)c1nn(CCCN2CCN(c3cccc(Cl)c3)CC2)c(=O)n1CCOc1ccccc1 [(S)-OH]
Q. Select the item whose IC50 value is smaller, choosing between a and b . // respond with label for picked entry
A. a
(a: 1000 nM, b: 1500 nM)

* * *

Biological target: 5-HT1A receptors (Homo sapiens, UniProt P08908)
Sequence (P08908 1-422): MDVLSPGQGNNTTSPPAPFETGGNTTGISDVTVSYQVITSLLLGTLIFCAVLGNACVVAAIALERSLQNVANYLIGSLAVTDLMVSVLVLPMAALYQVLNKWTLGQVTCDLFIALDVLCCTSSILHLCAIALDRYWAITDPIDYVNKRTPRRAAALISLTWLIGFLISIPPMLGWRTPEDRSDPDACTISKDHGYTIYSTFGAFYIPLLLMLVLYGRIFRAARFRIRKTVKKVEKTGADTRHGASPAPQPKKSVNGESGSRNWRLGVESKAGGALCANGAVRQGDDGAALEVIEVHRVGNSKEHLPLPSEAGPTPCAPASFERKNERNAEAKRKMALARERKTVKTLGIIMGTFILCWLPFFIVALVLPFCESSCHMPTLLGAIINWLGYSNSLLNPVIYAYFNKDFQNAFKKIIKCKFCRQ
pIC50: −log10 of the molar value.
Measured endpoint: pIC50

See these solved cases before continuing.
CC(O)c1nn(CCCN2CCN(c3cccc(Cl)c3)CC2)c(=O)n1CCOc1ccccc1 (racemic) [(RS)-OH, reference compound] : 6.39
C[C@@H](O)c1nn(CCCN2CCN(c3cccc(Cl)c3)CC2)c(=O)n1CCOc1ccccc1 [(R)-OH, (R)-hydroxynefazodone] : 6.30

I: C[C@H](O)c1nn(CCCN2CCN(c3cccc(Cl)c3)CC2)c(=O)n1CCOc1ccccc1 [(S)-OH]
II: CCc1nn(CCCN2CCN(c3cccc(Cl)c3)CC2)c(=O)n1CCOc1ccccc1
Q. Two entries are listed, I and II . Which one carries the higher pIC50? // respond with label for picked entry
A. I
(I: 6.60, II: 6.20)

* * *

target: serotonin uptake by rat cortex synaptosomes (Rattus norvegicus, UniProt P31652); assay: Serotonin uptake functional assay; conditions: [3H]5-hydroxytryptamin, read-out: Monoamine Neuronal Transport 5-HT Uptake (IC50)
Sequence (P31652 whole entry): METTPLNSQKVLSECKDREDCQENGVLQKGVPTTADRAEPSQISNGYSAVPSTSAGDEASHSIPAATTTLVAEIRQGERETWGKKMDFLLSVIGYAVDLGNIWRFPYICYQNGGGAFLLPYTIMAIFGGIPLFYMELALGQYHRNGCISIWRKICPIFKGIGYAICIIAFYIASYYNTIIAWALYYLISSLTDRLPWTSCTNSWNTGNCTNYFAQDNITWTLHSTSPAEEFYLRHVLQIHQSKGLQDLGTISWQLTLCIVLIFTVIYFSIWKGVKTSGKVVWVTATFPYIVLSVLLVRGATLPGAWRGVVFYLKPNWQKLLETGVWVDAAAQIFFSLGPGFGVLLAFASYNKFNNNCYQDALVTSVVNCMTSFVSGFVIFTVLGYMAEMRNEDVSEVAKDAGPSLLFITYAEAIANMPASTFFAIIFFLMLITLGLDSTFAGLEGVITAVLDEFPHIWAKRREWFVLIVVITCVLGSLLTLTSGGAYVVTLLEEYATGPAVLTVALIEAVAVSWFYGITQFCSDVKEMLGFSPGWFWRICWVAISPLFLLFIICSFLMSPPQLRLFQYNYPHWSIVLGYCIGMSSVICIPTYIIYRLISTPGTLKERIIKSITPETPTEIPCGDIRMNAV
Measured endpoint: IC50 (µM)

C[C@@H](O)c1nn(CCCN2CCN(c3cccc(Cl)c3)CC2)c(=O)n1CCOc1ccccc1 [(R)-OH, (R)-hydroxynefazodone] : 0.64

a: C[C@H](O)c1nn(CCCN2CCN(c3cccc(Cl)c3)CC2)c(=O)n1CCOc1ccccc1 [(S)-OH]
b: CC(O)c1nn(CCCN2CCN(c3cccc(Cl)c3)CC2)c(=O)n1CCOc1ccccc1 (racemic) [(RS)-OH, reference compound]
Q. Two entries are listed, a and b . Which one carries the higher IC50? // respond with label for picked entry
A. a

* * *

Target or system 5-HT2B (Homo sapiens); recorded quantity IC50.
Measured endpoint: IC50 (nM)

CC(O)c1nn(CCCN2CCN(c3cccc(Cl)c3)CC2)c(=O)n1CCOc1ccccc1 (racemic) [(RS)-OH, reference compound] : 34

1: C[C@@H](O)c1nn(CCCN2CCN(c3cccc(Cl)c3)CC2)c(=O)n1CCOc1ccccc1 [(R)-OH, (R)-hydroxynefazodone]
2: C[C@H](O)c1nn(CCCN2CCN(c3cccc(Cl)c3)CC2)c(=O)n1CCOc1ccccc1 [(S)-OH]
Q. Select the item whose IC50 value is smaller, choosing between 1 and 2 . // respond with label for picked entry
A. 1

* * *

Target or system Human 5-HT2A receptor (Homo sapiens, UniProt P28223); recorded quantity IC50.
Measured endpoint: IC50 (nM)

C[C@H](O)c1nn(CCCN2CCN(c3cccc(Cl)c3)CC2)c(=O)n1CCOc1ccccc1 [(S)-OH] : 18
C[C@@H](O)c1nn(CCCN2CCN(c3cccc(Cl)c3)CC2)c(=O)n1CCOc1ccccc1 [(R)-OH, (R)-hydroxynefazodone] : 22
CC(O)c1nn(CCCN2CCN(c3cccc(Cl)c3)CC2)c(=O)n1CCOc1ccccc1 (racemic) [(RS)-OH, reference compound] : 20

* * *

biological target: 5-HT5A (Homo sapiens, UniProt P47898); construct: host or cells: membrane preparations; experiment: 5-HT5A receptor binding; settings: read-out: Serotonin Receptor Binding 5-HT5A (IC50)
Sequence (P47898 whole entry, species assumed): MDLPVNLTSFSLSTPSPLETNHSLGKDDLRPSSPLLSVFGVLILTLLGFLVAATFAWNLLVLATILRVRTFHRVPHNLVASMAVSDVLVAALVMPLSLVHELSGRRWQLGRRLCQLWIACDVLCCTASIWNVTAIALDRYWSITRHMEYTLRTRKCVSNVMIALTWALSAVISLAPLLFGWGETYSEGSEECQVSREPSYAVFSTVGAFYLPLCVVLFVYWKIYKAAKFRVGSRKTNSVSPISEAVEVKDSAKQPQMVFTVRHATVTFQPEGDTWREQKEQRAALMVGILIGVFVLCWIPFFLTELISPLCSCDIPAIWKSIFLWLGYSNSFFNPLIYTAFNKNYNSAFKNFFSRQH
Measured endpoint: IC50 (µM)

See these solved cases before continuing.
C[C@@H](O)c1nn(CCCN2CCN(c3cccc(Cl)c3)CC2)c(=O)n1CCOc1ccccc1 [(R)-OH, (R)-hydroxynefazodone] : 2.04
C[C@H](O)c1nn(CCCN2CCN(c3cccc(Cl)c3)CC2)c(=O)n1CCOc1ccccc1 [(S)-OH] : 1.97

P: CCc1nn(CCCN2CCN(c3cccc(Cl)c3)CC2)c(=O)n1CCOc1ccccc1
Q: CC(O)c1nn(CCCN2CCN(c3cccc(Cl)c3)CC2)c(=O)n1CCOc1ccccc1 (racemic) [(RS)-OH, reference compound]
Q. Select the item whose IC50 value is smaller, choosing between P and Q . // respond with label for picked entry
A. P

* * *

target: 5-HT1D (Homo sapiens, UniProt P28221); construct: host or cells: membrane preparations; assay: 5-HT1D receptor binding; conditions: read-out: Serotonin Receptor Binding 5-HT1D (IC50)
Sequence (P28221 whole entry, species assumed): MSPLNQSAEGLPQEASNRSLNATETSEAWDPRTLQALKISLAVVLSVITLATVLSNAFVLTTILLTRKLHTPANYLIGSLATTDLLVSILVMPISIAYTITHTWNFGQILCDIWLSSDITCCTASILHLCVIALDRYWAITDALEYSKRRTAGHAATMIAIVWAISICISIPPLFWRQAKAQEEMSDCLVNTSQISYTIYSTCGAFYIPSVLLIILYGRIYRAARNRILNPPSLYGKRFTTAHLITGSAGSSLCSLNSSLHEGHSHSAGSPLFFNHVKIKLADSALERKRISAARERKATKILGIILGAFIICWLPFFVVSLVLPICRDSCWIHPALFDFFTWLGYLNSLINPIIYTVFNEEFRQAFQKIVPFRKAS
Measured endpoint: IC50 (µM)

See these solved cases before continuing.
C[C@@H](O)c1nn(CCCN2CCN(c3cccc(Cl)c3)CC2)c(=O)n1CCOc1ccccc1 [(R)-OH, (R)-hydroxynefazodone] : 1.99
CC(O)c1nn(CCCN2CCN(c3cccc(Cl)c3)CC2)c(=O)n1CCOc1ccccc1 (racemic) [(RS)-OH, reference compound] : 1.15

P: C[C@H](O)c1nn(CCCN2CCN(c3cccc(Cl)c3)CC2)c(=O)n1CCOc1ccccc1 [(S)-OH]
Q: CCc1nn(CCCN2CCN(c3cccc(Cl)c3)CC2)c(=O)n1CCOc1ccccc1 [Nefazodone]
Q. Select the item whose IC50 value is smaller, choosing between P and Q . // respond with label for picked entry
A. P
(P: 0.234 µM, Q: 0.925 µM)

* * *

Target or system 5-HT6 (Homo sapiens, UniProt P50406); recorded quantity IC50.
Measured endpoint: IC50 (nM)

C[C@@H](O)c1nn(CCCN2CCN(c3cccc(Cl)c3)CC2)c(=O)n1CCOc1ccccc1 [(R)-OH, (R)-hydroxynefazodone] : 1020

A: CC(O)c1nn(CCCN2CCN(c3cccc(Cl)c3)CC2)c(=O)n1CCOc1ccccc1 (racemic) [(RS)-OH, reference compound]
B: C[C@H](O)c1nn(CCCN2CCN(c3cccc(Cl)c3)CC2)c(=O)n1CCOc1ccccc1 [(S)-OH]
Q. Select the item whose IC50 value is smaller, choosing between A and B . // respond with label for picked entry
A. B

* * *

target: 5-HT1B (Homo sapiens, UniProt P28222)
Sequence (P28222 whole entry, species assumed): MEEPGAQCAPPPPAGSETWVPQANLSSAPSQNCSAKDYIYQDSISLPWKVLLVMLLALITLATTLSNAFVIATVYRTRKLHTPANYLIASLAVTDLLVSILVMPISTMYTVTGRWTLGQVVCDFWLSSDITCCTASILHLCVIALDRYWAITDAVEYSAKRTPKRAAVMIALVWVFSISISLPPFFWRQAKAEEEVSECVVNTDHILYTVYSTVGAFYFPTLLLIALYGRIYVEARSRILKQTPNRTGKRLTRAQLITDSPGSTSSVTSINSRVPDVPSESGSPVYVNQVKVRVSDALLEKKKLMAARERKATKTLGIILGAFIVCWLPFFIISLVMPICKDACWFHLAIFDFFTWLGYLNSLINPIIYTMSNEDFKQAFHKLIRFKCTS
pIC50: −log10 of the molar value.
Measured endpoint: pIC50

See these solved cases before continuing.
CCc1nn(CCCN2CCN(c3cccc(Cl)c3)CC2)c(=O)n1CCOc1ccccc1 : 5.73
C[C@@H](O)c1nn(CCCN2CCN(c3cccc(Cl)c3)CC2)c(=O)n1CCOc1ccccc1 [(R)-OH, (R)-hydroxynefazodone] : 5.44

a: CC(O)c1nn(CCCN2CCN(c3cccc(Cl)c3)CC2)c(=O)n1CCOc1ccccc1 (racemic) [(RS)-OH, reference compound]
b: C[C@H](O)c1nn(CCCN2CCN(c3cccc(Cl)c3)CC2)c(=O)n1CCOc1ccccc1 [(S)-OH]
Q. Two entries are listed, a and b . Which one carries the higher pIC50? // respond with label for picked entry
A. b
(b: 5.55, a: 5.34)
